# assay_name: TIMS collisional cross section (CCS, N2) of the lipid ion; higher = larger ion cross section
# setup_conditions: sample type: Liver; ionization mode: positive; one isomer drawn
The entries below come with measured TIMS collisional cross section values attached.
Entry rule: numbers only, all in Å².

{"compound": "CCCCCC/C=C\\CCCCCCCC(=O)OC[C@@H](COC(=O)CCCCCCCCCCC)OC(=O)CCCCCCCCCCC [TG 12:0_12:0_16:1] (ion (formula + adduct): [C43H80O6+NH4] 1+)", "unit_abbrev": "Å²", "measurement": 284.2}
{"compound": "CCCCCCC/C=C\\CCCCCCCC(=O)O[C@@H](COC(=O)CCCCCCC/C=C\\CCCCCCCC)COC(=O)CCCCCCCCCCCCCCCC [TG 17:0_17:1_18:1] (ion (formula + adduct): [C55H102O6+NH4] 1+)", "unit_abbrev": "Å²", "measurement": 322.4}
{"compound": "CC/C=C\\C/C=C\\C/C=C\\C/C=C\\C/C=C\\C/C=C\\CCC(=O)OC[C@@H](O)COP(=O)([O-])OCC[N+](C)(C)C [LPC 22:6] (ion (formula + adduct): [C30H50NO7P+H] 1+)", "unit_abbrev": "Å²", "measurement": 234.5}

Which measured TIMS collisional cross section value corresponds to CCCCCCCC/C=C\CCCCCCCCCCCCCC(=O)N[C@@H](CO[C@@H]1O[C@H](CO)[C@@H](O)C(O)C1O)[C@H](O)/C=C/CCCCCCCCCCCCC (some centres undefined) [GlcCer d18:1_24:1@] (ion (formula + adduct): [C48H91NO8+H] 1+) ?
302.8

====

# assay_name: TIMS collisional cross section (CCS, N2) of the lipid ion; higher = larger ion cross section
# setup_conditions: sample type: Liver; ionization mode: positive; one isomer drawn
readout_kind: TIMS collisional cross section (Å²)
Entry rule: numbers only, all in Å².

Sample answers from the record:
{"molecule": "CCCCCCCC/C=C\\CCCCCCCC(=O)OC[C@H](COP(=O)(O)OCCN(C)C)OC(=O)CCCCCCC/C=C\\CCCCCCCC [PE 18:1_18:1] (ion (formula + adduct): [C43H82NO8P+Na] 1+)", "TIMS collisional cross section / Å²": 290.8}
{"molecule": "CCCCC/C=C\\C/C=C\\C/C=C\\C/C=C\\CCCC(=O)OC[C@@H](COC(=O)CCCCCCC/C=C\\CCCCCC)OC(=O)CCCCCCCCCCCCCCCCC [TG 16:1_18:0_20:4] (ion (formula + adduct): [C57H100O6+NH4] 1+)", "TIMS collisional cross section / Å²": 324.7}
{"molecule": "CCCCC/C=C\\C/C=C\\CCCCCCCC(=O)OC[C@@H](COC(=O)CCCCCCC/C=C\\CCCCCC)OC(=O)CCCCCCC/C=C\\CCCCCCCC [TG 16:1_18:1_18:2] (ion (formula + adduct): [C55H98O6+NH4] 1+)", "TIMS collisional cross section / Å²": 317.35}

For the next question, use this molecule.
Which measured TIMS collisional cross section value corresponds to CCCCC/C=C\C/C=C\C/C=C\C/C=C\CCCC(=O)OC[C@H](COP(=O)(O)OCCN)OC(=O)CCC/C=C\C/C=C\C/C=C\C/C=C\CCCCC [PE 20:4_20:4] (ion (formula + adduct): [C45H74NO8P+H] 1+) ?
279.6
